Assay: Cytotoxicity against human HCT8 cells measured after 48 hrs by MTT assay
Format: functional, cell-based
Settings: HCT-8, 48 h
Here, each record is paired with measured IC50 data.
Numbers only; they are read as µM.

# annotated cases, reported IC50 shown
[[record]]
compound = "COc1cc([C@@H]2c3cc4c(cc3[C@@H](NC(=O)[C@H](C(C)C)N3C(=O)C5C6CCC(O6)C5C3=O)[C@H]3COC(=O)[C@H]23)OCO4)cc(OC)c1O (some centres undefined)"
quantitative_result = 7.81

[[record]]
compound = "COc1cc([C@@H]2c3cc4c(cc3[C@@H](NC(=O)[C@H](CCSC)N3C(=O)C5C6CCC(O6)C5C3=O)[C@H]3COC(=O)[C@H]23)OCO4)cc(OC)c1O (some centres undefined)"
quantitative_result = 12.3

[[record]]
compound = "COc1cc([C@@H]2c3cc4c(cc3[C@@H](O[C@@H]3O[C@@H]5CO[C@@H](C)O[C@H]5[C@H](O)[C@H]3O)[C@H]3COC(=O)[C@H]23)OCO4)cc(OC)c1O [ETOPOSIDE]"
quantitative_result = 10


With those in mind, consider the next compound.
**Q:** Field request: IC50 | item: COc1cc([C@@H]2c3cc4c(cc3[C@@H](NC(=O)[C@H](Cc3ccccc3)N3C(=O)C5C6CCC(O6)C5C3=O)[C@H]3COC(=O)[C@H]23)OCO4)cc(OC)c1O (some centres undefined)
**A:** 11.6
